System: ATP;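 also: ATP exposure 15 min at 22 °C before imaging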
Experiment: switch fluorescence ratio, 500 uM ATP over buffer (Cy3 cluster intensity, sum of 5 cycles each) (fold (ratio)); higher = stronger signal-on switching upon ATP binding; sequences stand for … in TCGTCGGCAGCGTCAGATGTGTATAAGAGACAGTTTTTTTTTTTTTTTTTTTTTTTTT…TC
Details: aptamer strand: ATP DNA aptamer (quencher-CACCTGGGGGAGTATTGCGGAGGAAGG + anchor), 100 nM annealed; ATP concentration: 500 uM
# cutoff 1 applies to switch fluorescence ratio; >= gives 1 (yes), < gives 0 (no)

Known results for sequences:
sequence=GGGGCTAGAT label_value="1 (yes)"
sequence=ATTACTTACA label_value="1 (yes)"
sequence=CGAGAAGGTG label_value="1 (yes)"
sequence=CGGATAGTGC label_value="1 (yes)"
sequence=GGGATGTAAG label_value="0 (no)"

QUERY: Please check the record `GCCGCGGGAG` and state if its switch fluorescence ratio is at or above 1.
RESULT: 1 (yes)

---

System: ATP;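 also: ATP exposure 15 min at 22 °C before imaging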
Test: switch fluorescence ratio, 500 uM ATP over buffer (Cy3 cluster intensity, sum of 5 cycles each) (fold (ratio)); higher = stronger signal-on switching upon ATP binding; sequences stand for … in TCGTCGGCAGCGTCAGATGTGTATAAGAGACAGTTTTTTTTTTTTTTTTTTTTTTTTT…TC
Details: aptamer strand: ATP DNA aptamer (quencher-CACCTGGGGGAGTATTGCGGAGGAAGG + anchor), 100 nM annealed; ATP concentration: 500 uM
PROPERTY: switch fluorescence ratio

sequence=AAATCGATGG study_target=ATP val=0.999
sequence=CCAGGGGCGC study_target=ATP val=1.04
sequence=TAAGTTCGCA study_target=ATP val=1.05
sequence=AACGAGGCAG study_target=ATP val=1.21
sequence=GGGGCACTGT study_target=ATP val=1.01

# return switch fluorescence ratio for each item in the list
1. GAGGTACGCT
2. CCACGCCTGT
3. GTTAGGTATT
4. ATTGTGCCTG
5. GGGTTTTGAA
6. TCAGGATTGA

RESULT:
1: 1.01; 2: 1.09; 3: 0.93; 4: 1.08; 5: 0.984; 6: 0.98

---

Please respond with reported switch fluorescence ratio for every item in the list.
System: ATP;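 also: ATP exposure 15 min at 22 °C before imaging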
Test: switch fluorescence ratio, 500 uM ATP over buffer (Cy3 cluster intensity, sum of 5 cycles each) (fold (ratio)); higher = stronger signal-on switching upon ATP binding; sequences stand for … in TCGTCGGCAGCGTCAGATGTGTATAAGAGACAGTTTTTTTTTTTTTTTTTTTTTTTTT…TC
Conditions: aptamer strand: ATP DNA aptamer (quencher-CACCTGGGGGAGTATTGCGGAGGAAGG + anchor), 100 nM annealed; ATP concentration: 500 uM
Numbers only.

Give switch fluorescence ratio for all sequences that follow.
1. TAATTTGGTG
2. GTGGGGGACT
3. GAGTAAGAGT
4. GTTGGTTGGA
5. AGATCTACAT
6. TCAGGGTGCT
7. ATGTGTGTA

RESULT:
1.04
1.28
1.02
0.983
1.01
1.1
1

Quick request: switch fluorescence ratio for each listed item, please.
1. TAATAGGGCA
2. GGGGTGCATG
3. GGGGGAAGCG
4. GAGCGCTAGG
5. TAAAATAAAG
6. TGATCATGTT
7. TAGGCAGGCG
8. AGTGTGGCCT

RESULT:
1
0.997
0.968
0.995
0.993
0.984
1.01
1
